- Test system: Hedgehog Signaling Pathway
- EXPERIMENT: SHH-induced differentiation of C3H10T1/2 cells into osteoblastic cells, intracellular alkaline phosphatase activity
- Assay type: cell-based, mouse
- SETUP_CONDITIONS: Mus musculus, C3H 10T1/2, 120 h, 10 nM SHH-N, 5 days, alkaline phosphatase activity (OD405), read-out: IC50 values of compounds that inhibit Hh pathway
Reported IC50 values for a set of compounds
Please give a number only; it is taken to be in nM.

Sample records with IC50:
[
  {
    "COMPOUND": "C[C@@H]1CN(c2ccc(C(=O)Nc3ccc(Cl)c(-c4nc5ccc(Cl)cc5[nH]4)c3)c(Cl)c2)C[C@H](C)N1C [Example 96]",
    "IC50 (nM)": 5
  },
  {
    "COMPOUND": "C[C@@H]1CN(c2ccc(C(=O)Nc3ccc(Cl)c(-c4nc5ccccc5[nH]4)c3)cn2)C[C@H](C)N1C [Example 104]",
    "IC50 (nM)": 0.61
  },
  {
    "COMPOUND": "Cc1cc(-c2ccc(C(F)(F)F)cc2)ccc1C(=O)Nc1ccc(Cl)c(-c2ccccn2)c1 [Example 59]",
    "IC50 (nM)": 7.5
  }
]

Problem: For the compound shown here, Cc1cc(C(=O)Nc2ccc(Cl)c(-c3nc4ccccc4[nH]3)c2)cnc1N1C[C@@H](C)O[C@@H](C)C1 [Example 37] , give the reported IC50.
Solution: 52

* * *

- System: Hedgehog Signaling Pathway
- EXPERIMENT: SHH-induced differentiation of C3H10T1/2 cells into osteoblastic cells, intracellular alkaline phosphatase activity
- Type: cell-based, mouse
- SETUP_CONDITIONS: Mus musculus, C3H 10T1/2, 120 h, 10 nM SHH-N, 5 days, alkaline phosphatase activity (OD405), read-out: IC50 values of compounds that inhibit Hh pathway
METRIC_NAME: pIC50
Worth noting: pIC50 values are minus log10 of concentrations stated in mol/L.

Problem: // query pIC50 value for entry Cc1cc(N2C[C@@H](C)N(C)[C@@H](C)C2)ncc1C(=O)Nc1ccc(Cl)c(-c2nc3ccccc3[nH]2)c1
Solution: 8.64

Problem: Please give the measured pIC50 for this molecule: COc1cc(-c2ccc(C(F)(F)F)cc2)ccc1C(=O)Nc1ccc(Cl)c(-c2nc3ccccc3[nH]2)c1
Solution: 7.40

Problem: // pIC50 lookup, key: COc1ccc(-c2ccc(C(=O)Nc3ccc(Cl)c(-c4nc5ccccc5[nH]4)c3)c(C)c2)cc1
Solution: 7.41

Problem: // returns reported pIC50 for input Cc1cc(N2C[C@@H](C)N(C)[C@@H](C)C2)ccc1C(=O)Nc1ccc(Cl)c(-c2nc3ccccc3o2)c1
Solution: 7.34

Problem: Fill in: pIC50 of Cc1cc(-c2ccc([N+](=O)[O-])cc2)ccc1C(=O)Nc1ccc(Cl)c(-c2nc3ccccc3[nH]2)c1 is ___
Solution: 8.46

Problem: Consider the molecule shown here: CCN1[C@H](C)CN(c2ccc(C(=O)Nc3ccc(Cl)c(-c4nc5ccccc5[nH]4)c3)cn2)C[C@@H]1C What is its recorded pIC50?
Solution: 8.66

Problem: Give its pIC50 value. Item: C[C@@H]1CN(c2ccc(C(=O)Nc3ccc(Cl)c(-c4ncc(-c5ccsc5)[nH]4)c3)c(Cl)c2)C[C@H](C)N1C
Solution: 9.70

* * *

# IC50 per entry
- System: Hedgehog Signaling Pathway
- EXPERIMENT: SAG-induced differentiation of C3H10T1/2 cells into osteoblastic cells, intracellular alkaline phosphatase activity
- Assay type: cell-based, mouse
- SETUP_CONDITIONS: 1 μM SAG, 5 days, alkaline phosphatase activity (OD405), read-out: IC50 values of compounds that inhibit Hh pathway
- Method: The Application of SAG to Induce Pluripotent Mesenchymal Mouse Embryonic Cell C3H/10T1/2 to Differentiate into Osteoblastic Cells for the Determination of the Inhibitory Activity of N-(3-(1H-benzo[d]imidazol-2-yl)-4-chlorophenyl)-2-methyl-4-((2S,6R)-2,6-dimethylmorpholino)benzamide and Analogs on Hedgehog Signaling Pathway […] After incubating for 5 days, the cells were taken out and intracellular alkaline phosphatase activity was tested. The alkaline phosphatase activity was measured as follows: […]
Just so you know, I need the unit written after the number.

[
  {
    "SMILES_INPUT": "Cc1cc(N2C[C@@H](C)N(C)[C@@H](C)C2)ccc1C(=O)Nc1ccc(Cl)c(-c2nc3cscc3[nH]2)c1",
    "IC50": "26 nM"
  },
  {
    "SMILES_INPUT": "CCCc1cnc(-c2cc(NC(=O)c3ccc(N4C[C@@H](C)N(C)[C@@H](C)C4)cc3Cl)ccc2Cl)[nH]1",
    "IC50": "165 nM"
  }
]

Below: the item to evaluate.
Problem: # IC50 lookup, item Cc1cc(N2C[C@@H](C)N(C)[C@@H](C)C2)ccc1C(=O)Nc1cnc(Cl)c(-c2nc3ccccc3[nH]2)c1
Solution: 21 nM

* * *

- Test system: Hedgehog Signaling Pathway
- EXPERIMENT: SHH-induced differentiation of C3H10T1/2 cells into osteoblastic cells, intracellular alkaline phosphatase activity
- Assay type: cell-based, mouse
- SETUP_CONDITIONS: Mus musculus, C3H 10T1/2, 120 h, 10 nM SHH-N, 5 days, alkaline phosphatase activity (OD405), read-out: IC50 values of compounds that inhibit Hh pathway
- Method: The Application of SHH to Induce Pluripotent Mesenchymal Mouse Embryonic Cell C3H10T1/2 to Differentiate into Osteoblastic Cells for the Determination of the Inhibitory Activity of N-(3-(1H-benzo[d]imidazol-2-yl)-4-chlorophenyl)-2-methyl-4-((2S,6R)-2,6-dimethylmorpholino)benzamide and Analogs on Hedgehog Signaling Pathway […] After incubating for 5 days, the cells were taken out and intracellular alkaline phosphatase activity was tested. The alkaline phosphatase activity was measured as follows: […]
Lab note: cut-off is 8 nM. Strictly less in IC50 is Condition met. Exactly 8 nM or more is Condition not met.

[
  {
    "COMPOUND": "C[C@@H]1CN(c2ccc(C(=O)Nc3cnc(Cl)c(-c4nc5ccc(F)cc5[nH]4)c3)c(Cl)c2)C[C@H](C)N1C",
    "CLASS_ASSIGNMENT": "Condition met"
  },
  {
    "COMPOUND": "O=C(Nc1ccc(Cl)c(-c2nc3ccccc3[nH]2)c1)C1CCC(c2ccccc2)CC1 (centres unmarked)",
    "CLASS_ASSIGNMENT": "Condition not met"
  },
  {
    "COMPOUND": "C[C@@H]1CN(c2ccc(C(=O)Nc3ccc(Cl)c(-c4ncc(C5CCC5)[nH]4)c3)c(Cl)c2)C[C@H](C)N1C",
    "CLASS_ASSIGNMENT": "Condition not met"
  },
  {
    "COMPOUND": "Cc1cc(N2C[C@@H](C)O[C@@H](C)C2)ncc1C(=O)Nc1ccc(Cl)c(-c2nc3ccccc3[nH]2)c1",
    "CLASS_ASSIGNMENT": "Condition met"
  },
  {
    "COMPOUND": "C[C@@H]1CN(c2ccc(C(=O)Nc3ccc(Cl)c(-c4ccccn4)c3)c(Cl)c2)C[C@H](C)N1C",
    "CLASS_ASSIGNMENT": "Condition met"
  }
]

Problem: Report whether reported IC50 is lower than 8 nM (strictly) for Cc1cc(-c2ccc(C(F)(F)F)cc2)ccc1C(=O)Nc1cccc(-c2nc3ccccc3[nH]2)n1
Solution: Condition not met

Problem: Given C[C@@H]1CN(c2ccc(C(=O)Nc3ccc(Cl)c(-c4ncc(C5CCCC5)[nH]4)c3)c(Cl)c2)C[C@H](C)N1C , is recorded IC50 strictly lower than 8 nM?
Solution: Condition not met

Problem: Item Cc1cc(-c2ccc(C(F)(F)F)cc2)ccc1C(=O)Nc1cccc(-c2nc3ccccn3n2)c1 : IC50 beneath 8 nM, strictly?
Solution: Condition not met

Problem: Quick check: does Cc1cc(N2C[C@@H](C)N(C)[C@@H](C)C2)ccc1C(=O)Nc1ccc(Cl)c(-c2nc3ccc(F)cc3[nH]2)c1 have IC50 under 8 nM?
Solution: Condition met

Problem: Does O=C(Nc1ccc(Cl)c(-c2nc3ccccc3[nH]2)c1)c1ccc(-c2ccc(C(F)(F)F)cc2)cc1 have IC50 strictly under 8 nM?
Solution: Condition not met

Problem: Please determine if Cc1cc(-c2ccc(C(F)(F)F)cc2)ccc1C(=O)Nc1ccc(C)c(-c2nc3ccccc3[nH]2)c1 is below 8 nM in terms of IC50.
Solution: Condition met

Problem: Threshold test, IC50 < 8 nM: Cc1cc(N2C[C@@H](C)N(C)[C@@H](C)C2)ccc1C(=O)Nc1ccc(Cl)c(-c2nc3ccccc3[nH]2)c1
Solution: Condition met

Problem: Determine whether this compound shows IC50 lower than 8 nM (ties excluded): Cc1cc(-c2ccc(C(F)(F)F)cc2)ccc1C(=O)Nc1ccc(F)c(-c2nc3ccccc3[nH]2)c1
Solution: Condition met

* * *

- Tested on: Hedgehog Signaling Pathway
- EXPERIMENT: SHH-induced differentiation of C3H10T1/2 cells into osteoblastic cells, intracellular alkaline phosphatase activity
- Assay type: cell-based, mouse
- SETUP_CONDITIONS: Mus musculus, C3H 10T1/2, 120 h, 10 nM SHH-N, 5 days, alkaline phosphatase activity (OD405), read-out: IC50 values of compounds that inhibit Hh pathway
Below, each entry is listed with its recorded IC50.
Write it as a number; the unit nM goes unstated.

Problem: What value of IC50 has been reported for the following molecule? C[C@@H]1CN(c2ccc(C(=O)Nc3ccc(Cl)c(-c4nc5ccccc5n4C)c3)c(Cl)c2)C[C@H](C)N1C [Example 110]
Solution: 0.66

Problem: For the molecule Cc1ccc2nc(-c3cc(NC(=O)c4ccc(N5C[C@@H](C)N(C)[C@@H](C)C5)cc4Cl)ccc3Cl)[nH]c2c1 [Example 111] , what IC50 is on record?
Solution: 0.94

Problem: Please give the measured IC50 for this molecule: Cc1cc(-c2ccccc2)ccc1C(=O)Nc1ccc(Cl)c(-c2nc3ccccc3[nH]2)c1 [Example 2]
Solution: 14

Problem: I am curious: what IC50 value has been reported for Cc1cc(N2C[C@@H](C)N(C)[C@@H](C)C2)ccc1C(=O)Nc1ccc(Cl)c(-c2ncc(C3CCCCC3)[nH]2)c1 [Example 185] ?
Solution: 6.1

Problem: Given the molecule O=C(Nc1ccc(Cl)c(-c2nc3ccccc3[nH]2)c1)c1ccc(-c2ccc(C(F)(F)F)cc2)cc1[N+](=O)[O-] [Example 19] , what is its reported IC50?
Solution: 23

Problem: Query: IC50; subject: C[C@@H]1CN(c2cc(Cl)c(C(=O)Nc3ccc(Cl)c(-c4nc5ccccc5[nH]4)c3)cc2F)C[C@H](C)N1C [Example 123]
Solution: 0.97

Problem: Value lookup for IC50; key = Cc1cc(N2C[C@@H](C)N(C)[C@@H](C)C2)ccc1C(=O)Nc1cnc(C)c(-c2nc3ccccc3[nH]2)c1 [Example 88]
Solution: 11
